I'd be grateful if you could share measured FACS-Seq fitted mean (log10) for these entries.
B1: library; a variant is named by its letters at N, in order (parent)
chain: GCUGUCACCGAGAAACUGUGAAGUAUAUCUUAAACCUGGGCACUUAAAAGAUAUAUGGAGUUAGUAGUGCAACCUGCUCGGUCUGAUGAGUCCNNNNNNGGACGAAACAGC

Variants of: B1
assay: FACS-Seq fitted mean relative fluorescence mCherry/BFP with ligand (log10 relative fluorescence); HEK293T; ligand: cyclic di-GMP (c-di-GMP-II aptamer); ligand concentration (+) FACS-Seq: 1 mM; higher = higher reporter protein expression
measurementSetup: ligand present: yes

Below: 6 variants and their reported FACS-Seq fitted mean (log10).
[[record]]
mutant = "UAGGGA"
observedresult = -0.000875

[[record]]
mutant = "CGCCUU"
observedresult = -0.126

[[record]]
mutant = "AGCCUA"
observedresult = 0.288

[[record]]
mutant = "ACAUUG"
observedresult = -0.401

[[record]]
mutant = "CCUCCG"
observedresult = 0.32

[[record]]
mutant = "UUCAAU"
observedresult = 0.267


Can you give me FACS-Seq fitted mean (log10) for all of these, one by one?
1. UCGAUA
2. AUGCCA
3. ACAAUA
4. UGAGUC

[-0.119, 0.176, -0.23, 0.117]

Can you give me FACS-Seq fitted mean (log10) for all of these, one by one?
1. CGCAAU
2. AGCAUG
3. CAAUCU

1: -0.206; 2: -0.236; 3: -0.88

Can you give me FACS-Seq fitted mean (log10) for all of these, one by one?
1. AGGUAU
2. GAUUGG
3. AUAGAC
4. CAAUCC
5. UCUGAA
6. UUAAAU
7. ACAUUA
8. AGCACU

0.0998
0.0818
0.0802
-0.368
-0.0714
-0.275
0.0676
0.4

Can you give me FACS-Seq fitted mean (log10) for all of these, one by one?
1. AUAGUA
2. GUUUGC
3. ACAGAU
4. CGCUGA
5. AUGGAA

0.305
0.164
-0.289
0.0499
-0.293
